Test system: MCF7
Assay: Cytotoxicity against multidrug resistant human MCF7 cells cultured in vinblastine free medium assessed as growth inhibition after 72 hrs by SRB assay
Format: functional, cell-based
Conditions: MCF7, 72 h
reported-property: IC50

Worked examples, 5 molecules total:
- molecule: "C/C=C(\\C)C(=O)O[C@H]1[C@@H]2O[C@H]3[C@H](O[C@@H](CCC)CCCCCCCCCC(=O)O[C@@H]4[C@@H](O)[C@H](C)O[C@@H](O[C@H]5[C@H](O)[C@@H](C)O[C@@H](O[C@H]([C@H]1O)[C@H](C)O2)[C@@H]5O[C@@H]1O[C@@H](C)[C@H](O)[C@@H](O)[C@H]1OC(=O)[C@H](C)[C@@H](C)O)[C@@H]4O)O[C@H](C)[C@@H](O)[C@@H]3O"
  IC50: "> 20 µM"
- molecule: "C/C=C(\\C)C(=O)O[C@@H]1[C@H](O)[C@@H](O)[C@H](O[C@@H]2[C@@H](O)[C@@H](OC(=O)/C(C)=C/C)[C@H](O[C@H]3[C@@H]4O[C@H]5[C@H](O[C@@H](CCCCC)CCCCCCCCCC(=O)O[C@H]3[C@H](O)[C@@H](CO)O4)O[C@H](C)[C@@H](O)[C@@H]5O)O[C@H]2C)O[C@@H]1C"
  IC50: "16.3 µM"
- molecule: "CCC[C@H]1CCCCCCCCCC(=O)O[C@H]2[C@H](O[C@H]3[C@H](O)[C@@H](C)O[C@@H](O[C@H]4[C@H](O1)O[C@H](C)[C@@H](O)[C@@H]4O)[C@@H]3O[C@@H]1O[C@@H](C)[C@H](OC(C)=O)[C@@H](O)[C@H]1O)O[C@H](C)[C@@H](O)[C@@H]2OC(=O)[C@H](C)[C@@H](C)O"
  IC50: "> 20 µM"
- molecule: "C/C=C(\\C)C(=O)O[C@H]1[C@H](O[C@H]2[C@@H]3O[C@H]4[C@H](O[C@@H](CCC)CCCCCCCCCC(=O)O[C@H]5[C@H](O[C@H]6[C@H](OC[C@@H](O3)[C@@H](O)[C@@H]2O)O[C@H](C)[C@@H](O)[C@@H]6O)O[C@@H](C)[C@H](O)[C@H]5O)O[C@H](C)[C@@H](O)[C@@H]4O)O[C@@H](C)[C@H](O)[C@H]1O"
  IC50: "> 20 µM"
- molecule: "CCC[C@H]1CCCCCCCCCC(=O)O[C@H]2[C@H](OC[C@H]3O[C@@H](O[C@H]4[C@H](O1)O[C@H](C)[C@@H](O)[C@@H]4O)[C@H](O[C@@H]1O[C@@H](C)[C@H](OC(C)=O)[C@@H](O)[C@H]1O)[C@@H](O)[C@@H]3O)O[C@H](C)[C@@H](O)[C@@H]2OC(=O)[C@H](C)[C@@H](C)O"
  IC50: "> 20 µM"

Lab note: next molecule to report on.
Q. Could you tell me which IC50 is on file for COc1cc2c(c(OC)c1OC)-c1ccc(OC)c(=O)cc1[C@@H](NC(C)=O)CC2 [COLCHICINE] ?
A. 2.8 µM

====

pIC50 values, listed per item
System: MDA-MB-231
Test: Cytotoxicity against human MDA-MB-231 cells assessed as growth inhibition after 72 hrs by SRB assay
Assay type: functional, cell-based
Conditions: MDA-MB-231, 72 h
pIC50: −log10 of the molar value.

- structure-smiles: "C/C=C(\\C)C(=O)O[C@H]1[C@H](O[C@H]2[C@@H]3O[C@H]4[C@H](O[C@@H](CCC)CCCCCCCCCC(=O)O[C@H]5[C@H](O[C@H]6[C@H](OC[C@@H](O3)[C@@H](O)[C@@H]2O)O[C@H](C)[C@@H](O)[C@@H]6O)O[C@@H](C)[C@H](O)[C@H]5O)O[C@H](C)[C@@H](O)[C@@H]4O)O[C@@H](C)[C@H](O)[C@H]1O"
  recorded-value: "< 4.70"
- structure-smiles: "C/C=C(\\C)C(=O)O[C@@H]1[C@H](O)[C@@H](O)[C@H](O[C@@H]2[C@@H](O)[C@@H](OC(=O)/C(C)=C/C)[C@H](O[C@H]3[C@@H]4O[C@H]5[C@H](O[C@@H](CCC)CCCCCCCCCC(=O)O[C@H]3[C@H](O)[C@@H](CO)O4)O[C@H](C)[C@@H](O)[C@@H]5O)O[C@H]2C)O[C@@H]1C"
  recorded-value: "< 4.70"
- structure-smiles: "C/C=C(\\C)C(=O)O[C@@H]1[C@H](O)[C@@H](O)[C@H](O[C@@H]2[C@@H](O)[C@@H](OC(=O)/C(C)=C/C)[C@H](O[C@H]3[C@@H]4O[C@H]5[C@H](O[C@@H](CCCCC)CCCCCCCCCC(=O)O[C@H]3[C@H](O)[C@@H](CO)O4)O[C@H](C)[C@@H](O)[C@@H]5O)O[C@H]2C)O[C@@H]1C"
  recorded-value: 4.94

Lab note: next compound to report on.
Q. Could you tell me which pIC50 is on file for CCC[C@H]1CCCCCCCCCC(=O)O[C@H]2[C@H](OC[C@H]3O[C@@H](O[C@H]4[C@H](O1)O[C@H](C)[C@@H](O)[C@@H]4O)[C@H](O[C@@H]1O[C@@H](C)[C@H](OC(C)=O)[C@@H](O)[C@H]1O)[C@@H](O)[C@@H]3O)O[C@H](C)[C@@H](O)[C@@H]2OC(=O)[C@H](C)[C@@H](C)O ?
A. < 4.70

Each recorded value in this set is attributed to ChEMBL document CHEMBL3994597.
